Target: ENaC (Epithelial Sodium Channel) (Mus musculus, UniProt Q61180+Q9WU38+Q9WU39)
Construct: Mouse kidney M-1 cells were cultivated in DMEM; endogenous in cells; host or cells: mouse kidney M-1 cells
Sequence (Q61180 whole entry): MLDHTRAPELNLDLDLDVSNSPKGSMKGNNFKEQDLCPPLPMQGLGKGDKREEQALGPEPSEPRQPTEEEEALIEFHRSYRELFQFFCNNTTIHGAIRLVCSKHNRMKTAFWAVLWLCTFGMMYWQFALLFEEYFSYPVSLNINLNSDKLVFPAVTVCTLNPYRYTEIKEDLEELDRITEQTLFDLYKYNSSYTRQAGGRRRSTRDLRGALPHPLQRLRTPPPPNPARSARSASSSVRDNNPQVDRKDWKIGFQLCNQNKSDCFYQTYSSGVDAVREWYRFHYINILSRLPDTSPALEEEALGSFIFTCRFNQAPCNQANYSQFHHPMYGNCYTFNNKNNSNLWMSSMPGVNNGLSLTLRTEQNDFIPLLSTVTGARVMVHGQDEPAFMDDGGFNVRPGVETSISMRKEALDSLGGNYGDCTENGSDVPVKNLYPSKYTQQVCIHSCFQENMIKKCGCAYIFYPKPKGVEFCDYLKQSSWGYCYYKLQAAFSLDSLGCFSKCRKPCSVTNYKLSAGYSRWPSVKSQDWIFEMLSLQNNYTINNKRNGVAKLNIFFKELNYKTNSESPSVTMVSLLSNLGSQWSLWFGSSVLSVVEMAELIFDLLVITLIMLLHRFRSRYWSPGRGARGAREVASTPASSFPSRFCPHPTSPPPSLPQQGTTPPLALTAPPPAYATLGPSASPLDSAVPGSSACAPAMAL
Sequence (Q9WU38 whole entry): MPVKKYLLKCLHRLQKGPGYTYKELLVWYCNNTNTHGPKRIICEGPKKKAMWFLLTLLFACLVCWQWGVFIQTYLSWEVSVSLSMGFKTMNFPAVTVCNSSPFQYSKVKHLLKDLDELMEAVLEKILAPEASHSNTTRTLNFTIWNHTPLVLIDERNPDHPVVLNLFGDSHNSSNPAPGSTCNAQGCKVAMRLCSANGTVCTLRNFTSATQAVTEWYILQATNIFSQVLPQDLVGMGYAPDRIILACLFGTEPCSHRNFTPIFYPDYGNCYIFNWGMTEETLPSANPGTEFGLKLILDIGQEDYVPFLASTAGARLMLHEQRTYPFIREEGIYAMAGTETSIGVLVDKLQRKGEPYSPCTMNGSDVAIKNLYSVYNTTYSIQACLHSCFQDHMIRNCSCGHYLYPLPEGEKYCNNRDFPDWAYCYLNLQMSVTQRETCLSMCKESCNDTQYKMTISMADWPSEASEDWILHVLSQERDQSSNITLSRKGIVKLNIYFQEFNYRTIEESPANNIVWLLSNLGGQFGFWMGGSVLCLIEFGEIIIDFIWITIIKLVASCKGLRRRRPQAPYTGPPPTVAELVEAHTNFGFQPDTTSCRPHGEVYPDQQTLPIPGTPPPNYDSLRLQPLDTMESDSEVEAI
Sequence (Q9WU39 whole entry): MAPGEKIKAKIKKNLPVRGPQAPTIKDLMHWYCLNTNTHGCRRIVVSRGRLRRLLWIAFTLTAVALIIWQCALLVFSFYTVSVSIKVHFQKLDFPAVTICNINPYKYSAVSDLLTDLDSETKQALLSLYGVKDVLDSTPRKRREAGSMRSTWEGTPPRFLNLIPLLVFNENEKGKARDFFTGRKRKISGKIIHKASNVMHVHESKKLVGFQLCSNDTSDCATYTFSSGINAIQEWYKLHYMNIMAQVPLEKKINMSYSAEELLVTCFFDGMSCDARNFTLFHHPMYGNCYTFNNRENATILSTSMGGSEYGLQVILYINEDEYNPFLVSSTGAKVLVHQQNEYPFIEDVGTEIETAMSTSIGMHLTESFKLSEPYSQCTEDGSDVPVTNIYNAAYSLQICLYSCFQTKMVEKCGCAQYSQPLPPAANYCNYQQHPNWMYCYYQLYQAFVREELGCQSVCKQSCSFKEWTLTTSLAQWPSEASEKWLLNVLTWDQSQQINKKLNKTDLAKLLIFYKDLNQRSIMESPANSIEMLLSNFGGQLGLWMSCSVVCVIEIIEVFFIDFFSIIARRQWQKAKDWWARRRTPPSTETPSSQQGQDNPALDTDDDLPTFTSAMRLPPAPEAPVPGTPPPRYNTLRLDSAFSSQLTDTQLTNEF
Experiment: Ussing chamber: short circuit current in M-1 cells
Format: cell-based
Details: Ussing chamber, mouse kidney M-1 cells, amiloride sensitive I_SC, apical application, 37° C.; read-out: IC50
quantity_name: IC50 (nM)

(1) CCNC(=O)COc1ccc2c(c1)n(CC)c(CNC(=O)c1nc(Cl)c(N)nc1N)[n+]2CC
(2) CCn1c(CNC(=O)c2nc(Cl)c(N)nc2N)[n+](CC)c2ccc(CNC(=O)OCC3c4ccccc4-c4ccccc43)cc21
Asked: Endpoint returns the identifier whose IC50 is numerically larger, either 1 or 2 . Your answer should be the label attached to the chosen record.
Given back: 2
(2: 9 nM, 1: 0.3 nM)

(P) CCn1c(CNC(=O)c2nc(Cl)c(N)nc2N)[n+](CC)c2ccc(OCCNC(=O)OC(C)(C)C)cc21
(Q) CCn1c(CNC(=O)c2nc(Cl)c(N)nc2N)[n+](CC)c2ccc(O)cc21
(R) CCn1c(CNC(=O)c2nc(Cl)c(N)nc2N)[n+](CC)c2ccc(CN)cc21
(S) CCn1c(CNC(=O)c2nc(Cl)c(N)nc2N)[n+](CC)c2ccc(CNC(=O)C[N+](C)(C)C)cc21
(T) CCn1c(CNC(=O)c2nc(Cl)c(N)nc2N)[n+](CC)c2ccc(O[C@@H]3CO[C@H]4[C@@H]3OC[C@H]4O)cc21
Asked: Arrange by IC50, high to low. Please express your ranking as an ordered list of the labels.
Given back: S, T, R, P, Q
(S: 5 nM, T: 3 nM, R: 1 nM, P: 0.4 nM, Q: 0.2 nM)

(a) CCNC(=O)[C@@H](C)Oc1ccc2c(c1)n(CC)c(CNC(=O)c1nc(Cl)c(N)nc1N)[n+]2CC
(b) CCn1c(CNC(=O)c2nc(Cl)c(N)nc2N)[n+](CC)c2ccc(OCCN)cc21
Asked: Endpoint returns the identifier whose IC50 is numerically larger, either a or b . Your answer should be the label attached to the chosen record.
Given back: b
(b: 1 nM, a: 0.5 nM)

(a) CCn1c(CNC(=O)c2nc(Cl)c(N)nc2N)[n+](CC)c2cc(Cl)c(OCCOCCOC)cc21
(b) CCn1c(CNC(=O)c2nc(Cl)c(N)nc2N)[n+](CC)c2ccc(CNC(=O)COc3cc(C(=O)N[C@H]4CC[C@H](N(C)C)CC4)cc(C(=O)N[C@H]4CC[C@H](N(C)C)CC4)c3)cc21
Asked: Endpoint returns the identifier whose IC50 is numerically larger, either a or b . Your answer should be the label attached to the chosen record.
Given back: b

* * *

Target: ENaC (Epithelial Sodium Channel) (Mus musculus, UniProt Q61180+Q9WU38+Q9WU39)
Construct: Mouse kidney M-1 cells were cultivated in DMEM; endogenous in cells; host or cells: mouse kidney M-1 cells
Experiment: Ussing chamber: short circuit current in M-1 cells
Assay type: cell-based
Details: Ussing chamber, mouse kidney M-1 cells, amiloride sensitive I_SC, apical application, 37° C.; read-out: IC50
Procedure: Mouse kidney M-1 cells were cultivated in DMEM containing 5% FCS and 5 μM dexamethasone for 10 to 12 days on polyester transwell filters. Filters were inserted into a teflon-coated well-plate which fit into the ussing chamber system. […] Short circuit currents (I_sc) were measured in the voltage-clamp mode with the software package Lab View for data acquisition and analysis. The transepithelial electrical resistance (TEER) was determined by the application of voltage steps of ±5 mV every 5 sec. […]
quantity_name: IC50 (nM)

CCOP(=O)([O-])CCCOc1ccc2c(c1)n(CC)c(CNC(=O)c1nc(Cl)c(N)nc1N)[n+]2CCOC 11

(P) CCn1c(CNC(=O)c2nc(Cl)c(N)nc2N)[n+](C)c2cc(Cl)c(OCCOCCOC)cc21
(Q) CCn1c(CNC(=O)c2nc(Cl)c(N)nc2N)[n+](C)c2ccc(O)cc21
(R) CCn1c(CNC(=O)c2nc(Cl)c(N)nc2N)[n+](CC)c2ccc(C[N+](C)(C)C)cc21
Asked: Ascending by IC50, please. Please express your ranking as an ordered list of the labels.
Given back: P, Q, R

* * *

Assay: Permeability in CALU-3 cells
Assay type: in vitro ADME
Details: human; basal-to-apical, CALU-3 monolayers, 10 μM compound, pH 7.4, 37° C.
Method: Permeability in CALU-3 Cells: Permeability measurements across polarized, confluent CALU-3 cell monolayers grown on permeable filter supports are used to provide information on the potential of a compound to pass the lung epithelium. Apparent permeability coefficients (Papp) of the compounds across the CALU-3 cell monolayers are measured (pH 7.4, 37° C.) in apical-to-basal (AB) and basal-toapical (BA) transport direction. […]
quantity_name: Papp B→A at 90 min, 10 μM (×10⁻⁶ cm/s)

Examples with their reported Papp B→A at 90 min, 10 μM follow.
compound	Papp B→A at 90 min, 10 μM [×10⁻⁶ cm/s]
CCn1c(CNC(=O)c2nc(Cl)c(N)nc2N)[n+](C[C@H](C)O)c2cc(OCCN)ccc21 [Example 1.7]	0.05
CC[n+]1c(CNC(=O)c2nc(Cl)c(N)nc2N)n(CCCCCO)c2cc(O)ccc21 [Example 3.7]	0.3
CCn1c(CNC(=O)c2nc(Cl)c(N)nc2N)[n+](CC)c2cc(Cl)c(O[C@H]3CO[C@H]4[C@@H]3OC[C@@H]4O)cc21 [Example 1.5]	0.1
CCOP(=O)([O-])CCCOc1ccc2c(c1)n(CC)c(CNC(=O)c1nc(Cl)c(N)nc1N)[n+]2CCOC [Example 1.1]	0.03

(I) CCn1c(CNC(=O)c2nc(Cl)c(N)nc2N)[n+](CC)c2cc(F)c(C(=O)N3CCOCC3)cc21 [Example 3.12]
(II) CCNC(=O)[C@@H](C)Oc1ccc2c(c1)n(CC)c(CNC(=O)c1nc(Cl)c(N)nc1N)[n+]2CC [Example 3.5]
Asked: Between the entries labeled I and II , whose measured Papp B→A at 90 min, 10 μM is lower? Your answer should be the label attached to the chosen record.
Given back: I
(I: 0.2 ×10⁻⁶ cm/s, II: 0.4 ×10⁻⁶ cm/s)

* * *

Test: Permeability in CALU-3 cells
Type: in vitro ADME
Settings: human; apical-to-basal, CALU-3 monolayers, 10 μM compound, pH 7.4, 37° C.
quantity_name: Papp A→B at 90 min, 10 μM (×10⁻⁶ cm/s)

Examples with their reported Papp A→B at 90 min, 10 μM follow.
compound	measure_unit	Papp A→B at 90 min, 10 μM
CC[n+]1c(CNC(=O)c2nc(Cl)c(N)nc2N)n(CCCCCO)c2cc(O)ccc21 [Example 3.7]	×10⁻⁶ cm/s	0.7
CCOP(=O)([O-])CCCOc1ccc2c(c1)n(CC)c(CNC(=O)c1nc(Cl)c(N)nc1N)[n+]2CCOC [Example 1.1]	×10⁻⁶ cm/s	0.1

(a) CCn1c(CNC(=O)c2nc(Cl)c(N)nc2N)[n+](C)c2cc(Cl)c(OCCOCCOC)cc21 [Example 3.8]
(b) CCn1c(CNC(=O)c2nc(Cl)c(N)nc2N)[n+](C[C@H](C)O)c2cc(OCCN)ccc21 [Example 1.7]
(c) CCn1c(CNC(=O)c2nc(Cl)c(N)nc2N)[n+](CC)c2cc(F)c(C(=O)N3CCOCC3)cc21 [Example 3.12]
(d) CCNC(=O)[C@@H](C)Oc1ccc2c(c1)n(CC)c(CNC(=O)c1nc(Cl)c(N)nc1N)[n+]2CC [Example 3.5]
(e) CCn1c(CNC(=O)c2nc(Cl)c(N)nc2N)[n+](CC)c2cc(Cl)c(O[C@H]3CO[C@H]4[C@@H]3OC[C@@H]4O)cc21 [Example 1.5]
Asked: Arrange by Papp A→B at 90 min, 10 μM, high to low. Please express your ranking as an ordered list of the labels.
Given back: d, e, a, c, b

* * *

Experiment: Permeability in CALU-3 cells
Type: in vitro ADME
Details: human; basal-to-apical, CALU-3 monolayers, 10 μM compound, pH 7.4, 37° C.
quantity_name: Papp B→A at 90 min, 10 μM (×10⁻⁶ cm/s)

CCOP(=O)([O-])CCCOc1ccc2c(c1)n(CC)c(CNC(=O)c1nc(Br)c(N)nc1N)[n+]2CCOC 0.08
CCn1c(CNC(=O)c2nc(Cl)c(N)nc2N)[n+](C)c2cc(Cl)c(OCCOCCOC)cc21 0.2
CCn1c(CNC(=O)c2nc(Cl)c(N)nc2N)[n+](CC)c2ccc(CNC(=O)CN(C)C)cc21.[Cl-] 0.2
